Listed here: items and their measured half-life.
Experiment: Half life in Wistar rat at 0.3 mg/kg,iv measured upto 24 hrs by HPLC-MS/MS analysis
Format: ADME, organism-based
Details: in vivo
Response body: numeric value in h, unit text excluded.

Cc1cc(OC(F)F)ccc1NC(=O)c1cc(C(=O)NCc2ccc(F)cc2)c(F)cc1Cl :: 4.8

Incoming: Requested read-out: half-life. Entry: Cc1cc(N2CCOCC2)cnc1NC(=O)c1cc(C(=O)NCc2ccc(F)c(F)c2)c(F)cc1Cl
Outgoing: 0.21

====

Assay: Stability of compound in cysteine at pH 7.4 assessed as parent compound remaining at 10 mM and measured after 4 hrs by HPLC-UV analysis
Assay type: physicochemical
Details: cysteine solution, read-out: Stability
Listed here: items and their measured remaining at 4 h, 10000 µM.
Response body: numeric value in %, unit text excluded.

Examples with their reported remaining at 4 h, 10000 µM follow.
CC(C)(O)c1ccc(NC(=O)c2cc(C(=O)NCc3ccc(F)c(F)c3)c(F)cc2Cl)cc1 :: 100
Cc1cc(N2CCOCC2)cnc1NC(=O)c1cc(C(=O)NCc2ccc(F)c(F)c2)c(F)cc1Cl :: 100

Turning now to a further record.
Incoming: Requested read-out: remaining at 4 h, 10000 µM. Entry: Cc1cc(OC(F)F)ccc1NC(=O)c1cc(C(=O)NCc2ccc(F)cc2)c(F)cc1Cl
Outgoing: 71
